The entries below are paired with their reported Kb.
# TESTED ON: human alpha2A receptors (Homo sapiens, UniProt P08913)
# Sequence (P08913 whole entry): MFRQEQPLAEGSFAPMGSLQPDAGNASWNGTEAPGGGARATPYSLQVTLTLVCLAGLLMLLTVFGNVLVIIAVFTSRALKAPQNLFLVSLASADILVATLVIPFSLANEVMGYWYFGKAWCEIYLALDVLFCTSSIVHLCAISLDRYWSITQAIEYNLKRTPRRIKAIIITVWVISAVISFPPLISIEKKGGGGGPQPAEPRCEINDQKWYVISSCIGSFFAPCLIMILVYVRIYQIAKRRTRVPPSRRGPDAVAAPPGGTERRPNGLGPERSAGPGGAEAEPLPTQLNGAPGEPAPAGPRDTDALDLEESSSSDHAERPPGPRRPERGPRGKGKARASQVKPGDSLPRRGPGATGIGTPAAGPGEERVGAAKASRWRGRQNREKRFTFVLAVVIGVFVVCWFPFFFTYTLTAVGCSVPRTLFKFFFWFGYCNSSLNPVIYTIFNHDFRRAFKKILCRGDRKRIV
# EXPERIMENT: cell-based

// solved cases for Kb follow
# MOLECULE, TESTED ON, QUANTITY MEASURED, REPORTED
rows = [
    ("CC(C)CN1CC(=O)N([C@H]2CCCN(C[C@H]3COc4ccccc4O3)C2)C1=O [example 107]", "human alpha2A receptors (Homo sapiens, UniProt P08913)", "Kb", "> 449 nM"),
    ("O=S1(=O)Cc2ccccc2N1[C@H]1CCCN(C[C@H]2COc3ccccc3O2)C1 [example 25]", "human alpha2A receptors (Homo sapiens, UniProt P08913)", "Kb", "24 nM"),
    ("O=C1c2ccncc2CN1[C@H]1CCCN(C[C@H]2COc3ccccc3O2)C1 [example 76]", "human alpha2A receptors (Homo sapiens, UniProt P08913)", "Kb", "> 449 nM"),
]

The recorded Kb for entry Cc1nc2cc(F)c(F)cc2n1[C@H]1CCCN(C[C@H]2COc3ccccc3O2)C1 [example 28] equals > 449 nM

Lookup result for CN1C(=O)N([C@H]2CCCN(C[C@H]3COc4ccccc4O3)C2)C(=O)C1(C)C [example 111] ; measured Kb: > 449 nM

The reported value for C[C@]1(c2ccccc2)CCN([C@H]2CCCN(C[C@H]3COc4ccccc4O3)C2)C1=O [example 14] in terms of Kb is 262 nM

###

# TESTED ON: human alpha2A receptors (Homo sapiens, UniProt P08913)
# EXPERIMENT: cell-based
QUANTITY MEASURED: Kb (µM)

# COMPOUND, Kb, µM
data = [
    ("Clc1ccc2ncn([C@H]3CCCN(C[C@H]4COc5ccccc5O4)C3)c2c1", 0.425),
]

(I) O=C1C(=O)N([C@H]2CCCN(C[C@H]3COc4ccccc4O3)C2)C(=O)N1C1CCCC1
(II) O=C1OC(c2ccc(F)cc2)CN1[C@H]1CCCN(C[C@H]2COc3ccccc3O2)C1 (some centres unmarked)
(III) CCC1(c2ccccc2)C(=O)N([C@H]2CCCN(C[C@H]3COc4ccccc4O3)C2)C(=O)N1C (some centres unmarked)
Please list the entries, largest Kb first. Return value: ordered labels per request.
I, II, III
(I: 0.389 µM, II: 0.063 µM, III: 0.008 µM)

###

# TESTED ON: human alpha2A receptors (Homo sapiens)
# EXPERIMENT: cell-based
Structures can show the parent of a compound that is named as a salt.
Quick reference: Kb of the listed items.

Past entries and their recorded results:
# MOLECULE, Kb
measured = [
    ("CC(C)(C)C1CN([C@H]2CCCN(C[C@H]3COc4ccccc4O3)C2)C(=O)O1 (some centres unmarked)", "0.382 µM"),
    ("COc1ccc2c(c1)CN([C@H]1CCCN(C[C@H]3COc4ccccc4O3)C1)C2=O", "> 0.449 µM"),
]

"O=C1c2ncccc2CN1[C@H]1CCCN(C[C@H]2COc3ccccc3O2)C1" yielded Kb of > 0.449 µM

Per the record, "CC1(C)CCN([C@H]2CCCN(C[C@H]3COc4ccccc4O3)C2)C1=O" has Kb of > 0.449 µM

Kb reading for CC1(c2ccccc2)CC(=O)N([C@H]2CCCN(C[C@H]3COc4ccccc4O3)C2)C1=O (some centres unmarked) : 0.009 µM

The reported Kb of the molecule "O=C1c2scnc2CN1[C@H]1CCCN(C[C@H]2COc3ccccc3O2)C1" was > 0.449 µM

The recorded Kb for "CC(C)N1C(=O)N([C@H]2CCCN(C[C@H]3COc4ccccc4O3)C2)C(=O)C1(C)C" is > 0.449 µM

Sample "Cc1nc2cnccc2n1[C@H]1CCCN(C[C@H]2COc3ccccc3O2)C1" ; Kb observed: > 0.449 µM

The molecule "O=C1c2ccc(Cl)cc2CN1[C@H]1CCCN(C[C@H]2COc3ccccc3O2)C1" showed Kb equal to > 0.449 µM

Kb measured on O=C1[C@H]2CCCC[C@H]2C(=O)N1[C@H]1CCCN(C[C@H]2COc3ccccc3O2)C1 [example 93, hydrochloride] = > 0.449 µM
